Experimental System: human amylin receptor (hAMYR3) (Homo sapiens, UniProt O60896+P30988)
Construct: host or cells: BHK cells (Hollex-1 line expressing hCTR(a) and CRE-Luc), further transfected with human RAMP3
Sequence (P30988 25-474): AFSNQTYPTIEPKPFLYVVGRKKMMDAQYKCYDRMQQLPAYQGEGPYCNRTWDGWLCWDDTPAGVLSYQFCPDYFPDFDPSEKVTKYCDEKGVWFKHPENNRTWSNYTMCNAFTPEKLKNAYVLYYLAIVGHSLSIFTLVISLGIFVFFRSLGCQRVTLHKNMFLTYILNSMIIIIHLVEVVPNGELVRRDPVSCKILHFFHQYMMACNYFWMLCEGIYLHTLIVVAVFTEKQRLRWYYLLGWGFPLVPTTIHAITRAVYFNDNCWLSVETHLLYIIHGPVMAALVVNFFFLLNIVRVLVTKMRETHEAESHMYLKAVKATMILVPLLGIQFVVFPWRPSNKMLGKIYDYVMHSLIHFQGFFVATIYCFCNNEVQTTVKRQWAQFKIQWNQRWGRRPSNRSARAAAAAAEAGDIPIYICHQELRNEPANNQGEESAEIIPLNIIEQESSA
Sequence (O60896 24-148): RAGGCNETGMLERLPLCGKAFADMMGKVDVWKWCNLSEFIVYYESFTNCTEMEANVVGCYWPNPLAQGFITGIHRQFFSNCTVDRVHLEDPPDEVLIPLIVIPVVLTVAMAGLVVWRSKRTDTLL
Method Notes: Amylin receptor assay, method A (CRE-luciferase reporter, BHK cells)
Type: cell-based
Reported Conditions: method A, absence of HSA; read-out: hAMYR3 Potency, no HSA, EC50
Numbered stars: 1 amine (or outer) side, 2 acyl side, 3 side chain; on linkers, the order of the positions; unused ones are H or OH. Square brackets hold non-standard residues; d marks the D form. Side chains are listed from the residue outwards. * marks the point of attachment. C20 diacid = O=C(O)CCCCCCCCCCCCCCCCCCC(=O)*; C18 diacid = O=C(O)CCCCCCCCCCCCCCCCC(=O)*; C16 diacid = O=C(O)CCCCCCCCCCCCCCC(=O)*; γGlu = O=C(O)[C@H](CCC(=O)[*:2])N[*:1]; AEEA = NCCOCCOCC(=O)O; Aib = CC(C)(N)C(=O)O
Value Kind: EC50 (pM)
Answer in pM, number only, no unit symbol.

Give EC50 for Y[Aib]EGTFTSDYSILLEEQAAREFIEWLLAGGPSSK([AEEA-AEEA-γGlu-C18 diacid])APPPSGGGEASELSTAALGRLSAELHRLATLPRTETGSGSP-NH2 [Compound 31]
2.69

Item Y[Aib]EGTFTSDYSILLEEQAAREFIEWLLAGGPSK([AEEA-AEEA-γGlu-C16 diacid])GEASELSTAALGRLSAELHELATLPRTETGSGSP-NH2 [Compound 11] : provide EC50
12.8

Identify EC50 associated with the substance H[Aib]HGTFTSDYSILLEEQAAREFIEWLLAGGPSSGALQAPGQAPGASHLSTAQTARLSAELHRLK([AEEA-AEEA-γGlu-C18 diacid])TLPRTETGSGSP-NH2 [Compound 106]
2.07

Given the substance Y[Aib]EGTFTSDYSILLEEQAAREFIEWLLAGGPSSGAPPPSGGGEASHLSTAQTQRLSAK([AEEA-AEEA-γGlu-C20 diacid])LHRLATLPRTETGSGSP-NH2 [Compound 110] , write its reported EC50.
3.27

Please give measured EC50 of the following entry: H[Aib]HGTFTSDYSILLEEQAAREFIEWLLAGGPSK([AEEA-AEEA-γGlu-C18 diacid])GAGQAPGQAPGASHLSTAQTQRLSAELHELATLPRTETGSGSP-NH2 [Compound 47]
2.57

Read the entry Y[Aib]EGTFTSDYSILLEEQAAREFIEWLLAGGPSSGEASHLSTAQTQRLSAELHRLATLPK([AEEA-AEEA-γGlu-C18 diacid])TETGSGSP-NH2 [Compound 81] and write its reported EC50.
4.07

# return recorded EC50 for entry H[Aib]HGTFTSDYSILLEEQAAREFIEWLLAGGPSSGAGQAPGQAPGASHLSTAQTARLSAELHK([AEEA-AEEA-γGlu-C20 diacid])LATLPRTETGSGSP-NH2 [Compound 104]
1.49

Quick one: give measured EC50 for H[Aib]HGTFTSDYSILLEEQAAREFIEWLLAGGPSRGAPPPSGGGEASELSTAALGRLSAELHK([AEEA-AEEA-γGlu-C18 diacid])LATLPRTETGSGSP-NH2 [Compound 70]
4.53

Return value of EC50 for input Y[Aib]EGTFTSDYSILLEEQAAREFIEWLLAGGPSSGAGQAPGQAPGASHLSTAQTARLSAELHK([AEEA-AEEA-γGlu-C18 diacid])LATLPRTETGSGSP-NH2 [Compound 113] , no commentary.
2.53

// Input: H[Aib]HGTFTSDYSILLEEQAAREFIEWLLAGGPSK([AEEA-AEEA-γGlu-C18 diacid])GALAQTLGTNEASHLSTAQTQRLSAELHELATLPRTETGSGSP-NH2 [Compound 45] . Output its EC50 only.
4.69

Determine its reported EC50: Y[Aib]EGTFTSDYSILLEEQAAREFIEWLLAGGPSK([AEEA-AEEA-γGlu-C18 diacid])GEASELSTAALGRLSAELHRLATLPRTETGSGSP-NH2 [Compound 19]
4.24

Give the value of EC50 reported for the following: Y[Aib]EGTFTSDYSILLEEQAAREFIEWLLAGGPSSGEASHLSTAQTQRLSAK([AEEA-AEEA-γGlu-C18 diacid])LHRLATLPRTETGSGSP-NH2 [Compound 79]
3.53

Look up and report measured EC50 for this entry: H[Aib]HGTFTSDYSILLEEQAAREFIEWLLAGGPSSGALAQTLAQTLASHLSTAQTQRLSAELHK([AEEA-AEEA-γGlu-C18 diacid])LATLPRTETGSGSP-NH2 [Compound 51]
6.19

Determine its reported EC50: Y[Aib]EGTFTSDYSILLEEQAAREFIEWLLAGGPSSGAGQAPGQAPGASHLSTAQTQRLSAELHQLK([AEEA-AEEA-γGlu-C18 diacid])TLPRTETGSGSP-NH2 [Compound 102]
3.26

Retrieve EC50 measured for H[Aib]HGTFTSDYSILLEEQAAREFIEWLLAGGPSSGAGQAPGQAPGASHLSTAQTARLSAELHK([AEEA-AEEA-γGlu-C18 diacid])LATLPRTETGSGSP-NH2 [Compound 103] and print it.
2.42

Let me know recorded EC50 for Y[Aib]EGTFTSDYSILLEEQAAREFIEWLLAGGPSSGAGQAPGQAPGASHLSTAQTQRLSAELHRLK([AEEA-AEEA-AEEA-γGlu-C18 diacid])TLPRTETGSGSP-NH2 [Compound 111] , thanks.
3.33

Given Y[Aib]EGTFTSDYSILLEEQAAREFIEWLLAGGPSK([AEEA-AEEA-γGlu-C18 diacid])GAPPEASELSTAALGRLSAELHELATLPRTETGSGSP-NH2 [Compound 33] , respond with its EC50.
10.3

Give reported EC50 value for H[Aib]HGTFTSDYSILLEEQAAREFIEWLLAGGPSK([AEEA-AEEA-γGlu-C16 diacid])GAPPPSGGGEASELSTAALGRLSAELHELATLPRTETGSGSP-NH2 [Compound 12]
6.23

Determine its reported EC50: Y[Aib]EGTFTSDYSILLEEQAAREFIEWLLAGGPSSGAGQAPGQAPLASHLSTAQTQRLSAELHK([AEEA-AEEA-γGlu-C18 diacid])LATLPRTETGSGSP-NH2 [compound 58]
2.91

State its EC50 for this substance: Y[Aib]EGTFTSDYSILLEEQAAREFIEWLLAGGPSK([AEEA-AEEA-γGlu-C18 diacid])GEASHLSTAQTARLSAELHELATLPRTETGSGSP-NH2 [Compound 35]
4.21

Answer with reported EC50 of Y[Aib]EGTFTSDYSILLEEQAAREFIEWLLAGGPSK([AEEA-AEEA-γGlu-C16 diacid])GASELSTAALGRLSAELHRLATLPRTETGSGSP-NH2 [Compound 20]
3.65

Data credit: patent US20260174875A1
